Target: His6-ERα298-554 WT (ERα ligand-binding domain) (Homo sapiens (Human), UniProt P03372)
Sequence (P03372 298-554): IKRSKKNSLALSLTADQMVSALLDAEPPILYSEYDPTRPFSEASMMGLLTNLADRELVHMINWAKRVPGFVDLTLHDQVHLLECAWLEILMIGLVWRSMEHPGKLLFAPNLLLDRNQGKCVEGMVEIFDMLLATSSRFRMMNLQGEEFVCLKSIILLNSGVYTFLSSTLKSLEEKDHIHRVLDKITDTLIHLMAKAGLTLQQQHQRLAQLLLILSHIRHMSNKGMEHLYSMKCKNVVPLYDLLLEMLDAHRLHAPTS
Assay: Test A: biochemical antagonist activity, LanthaScreen TR-FRET ERα coactivator assay, WT
Settings: asterisk (*): protocol using 10 nM estradiol; read-out: Antagonism WT IC50
measurement-label: log10 of IC50 (log10 of the value in nM)

> print(dat)
                                  structure  measured
1  COc1ccc(C2=C(c3ccc(O[C@H]4CCN(CCCF)C4)cc3)c3ccc(O)cc3SC2)c(F)n1      0.00
2  CC(C)(C)c1ccc(C2=C(c3ccc(O[C@H]4CCN(CCCF)C4)cc3)c3ccc(O)cc3SC2)cc1      2.55
3  Cc1ccc(C2=C(c3ccc(O[C@H]4CCN(CCCF)C4)nc3)c3ccc(O)cc3SC2)c(F)c1      0.00
4  Cc1noc(C)c1C1=C(c2ccc(O[C@H]3CCN(CCCF)C3)cc2)c2ccc(O)cc2SCC1      1.08
5  CONC(=O)c1cc(C2=C(c3ccc(O[C@H]4CCN(CCCF)C4)cc3)c3ccc(O)cc3SCC2)ccc1F      1.32
6  CCOc1cc(C2=C(c3ccc(O[C@H]4CCN(CCCF)C4)cc3)c3ccc(O)cc3SCC2)ccc1F      1.15
7  Cc1cc(C2=C(c3ccc(O[C@H]4CCN(CCCF)C4)cc3)c3ccc(C(=O)O)cc3SCC2)ccc1Cl      1.59
